- method: Population pharmacokinetics in plasma, Study 1 and Study 2
- Assay type: in vivo, human
- condition_summary: human, plasma, iv, 0.14 mg/kg, Group 1C: 1 day IV 0.14 mg/kg, adults, n=30; plasma; mean and SD; read-out: AUC or AUC0-24,ss
quantity: AUC(0-t)

Query Cc1c(CCO)sc[n+]1CCCCCCCCCCCC[n+]1csc(CCO)c1C [SAR97276A] yields AUC(0-t) of 480 ng·h/mL

====

- method: Population pharmacokinetics in plasma, Study 1 and Study 2
- Assay type: in vivo, human
- condition_summary: human, plasma; adults; read-out: Median central volume of distribution V2
quantity: Vd (L/kg)
Give bare numbers, in L/kg.

Query Cc1c(CCO)sc[n+]1CCCCCCCCCCCC[n+]1csc(CCO)c1C [SAR97276A] yields Vd of 0.27

====

- method: Population pharmacokinetics in plasma, Study 1 and Study 2
- Assay type: in vivo, human
- condition_summary: human, plasma, im, 0.18 mg/kg, Group 1D: 3 days IM 0.18 mg/kg, children, n=14; plasma; mean and SD; read-out: AUC or AUC0-24,ss
quantity: AUC(0-t)

Query Cc1c(CCO)sc[n+]1CCCCCCCCCCCC[n+]1csc(CCO)c1C [SAR97276A] yields AUC(0-t) of 0.479 µg·h/mL

====

- method: Population pharmacokinetics in plasma, Study 1 and Study 2
- Assay type: in vivo, human
- condition_summary: human, plasma, im, 0.18 mg/kg, Study 1 Adults IM (1A + 1B) 0.18 mg/kg, n=64; plasma; mean and SD; read-out: AUC or AUC0-24,ss
quantity: AUC(0-t) (ng·h/mL)
Give bare numbers, in ng·h/mL.

Query Cc1c(CCO)sc[n+]1CCCCCCCCCCCC[n+]1csc(CCO)c1C [SAR97276A] yields AUC(0-t) of 674

====

- method: Population pharmacokinetics in plasma, Study 1 and Study 2
- Type: in vivo, human
- condition_summary: human, plasma; adults; read-out: Median clearance (converted)
quantity: clearance (mL/min/kg)
Give bare numbers, in mL/min/kg.

Query Cc1c(CCO)sc[n+]1CCCCCCCCCCCC[n+]1csc(CCO)c1C [SAR97276A] yields clearance of 4.58

====

- method: Population pharmacokinetics in plasma, Study 1 and Study 2
- Assay type: in vivo, human
- condition_summary: human, plasma, im, 0.18 mg/kg, Group 1D: 3 days IM 0.18 mg/kg, children, n=14; plasma; mean and SD; read-out: Cmax or Cmax,ss
quantity: Cmax (ng/mL)
Give bare numbers, in ng/mL.

Query Cc1c(CCO)sc[n+]1CCCCCCCCCCCC[n+]1csc(CCO)c1C [SAR97276A] yields Cmax of 332

====

- method: Population pharmacokinetics in plasma, Study 1 and Study 2
- Type: in vivo, human
- condition_summary: human, plasma, im, 0.5 mg/kg, Group 2A: 3 days IM once daily 0.5 mg/kg, teenagers, n=8; plasma; mean and SD; read-out: Cmax or Cmax,ss
quantity: Cmax (ng/mL)
Numbers only, in ng/mL.

Query Cc1c(CCO)sc[n+]1CCCCCCCCCCCC[n+]1csc(CCO)c1C [SAR97276A] yields Cmax of 862

====

- method: Population pharmacokinetics in plasma, Study 1 and Study 2
- Assay type: in vivo, human
- condition_summary: human, plasma, intramuscular, 0.18 mg/kg; children; read-out: Median clearance (converted)
quantity: clearance (mL/min/kg)
One number for each entry, in mL/min/kg.

Query Cc1c(CCO)sc[n+]1CCCCCCCCCCCC[n+]1csc(CCO)c1C [SAR97276A] yields clearance of 6.55
